Where do the numbers come from? From patent US8163779B2.

molecular target: glucokinase (GK) (Homo sapiens, UniProt P35557); construct: I.D. No. 1 corresponds to residues 12-465 of glucokinase; test: enzymatic glucokinase activity assay (ATP consumption, KinaseGlo luminescence); details: recombinant GK residues 12-465; 5 μM ATP, 5 mM Glucose; Kact = concentration that displays 50% of the maximal increase in GK activity; read-out: pKact
Sequence (P35557 with tags, fused parts or gaps isoform P35557-2): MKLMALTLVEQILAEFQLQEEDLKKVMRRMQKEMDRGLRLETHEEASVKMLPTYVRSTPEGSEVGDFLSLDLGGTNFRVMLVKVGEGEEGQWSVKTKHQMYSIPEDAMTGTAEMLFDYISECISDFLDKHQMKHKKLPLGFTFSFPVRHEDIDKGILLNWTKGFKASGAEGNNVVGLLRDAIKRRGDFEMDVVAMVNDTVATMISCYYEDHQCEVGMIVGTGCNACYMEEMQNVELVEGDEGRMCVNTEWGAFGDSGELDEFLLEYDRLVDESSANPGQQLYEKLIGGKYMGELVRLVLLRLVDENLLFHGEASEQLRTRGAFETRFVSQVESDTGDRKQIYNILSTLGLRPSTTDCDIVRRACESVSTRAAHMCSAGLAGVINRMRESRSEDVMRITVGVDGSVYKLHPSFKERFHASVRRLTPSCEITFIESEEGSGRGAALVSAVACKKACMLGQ
Item-by-item account of EC50

INSERT INTO measurements (compound, test_system, measurement_type, value_measured) VALUES
  ('Cc1cc(-c2cccc(S(C)(=O)=O)c2)cc(=O)n1[C@@H](CC1CCCCC1)C(=O)Nc1nccs1 [Example 126]', 'glucokinase (GK) (Homo sapiens, UniProt P35557)', 'EC50', '> 15.8 µM'),
  ('O=C(Nc1ncc(Cl)s1)[C@@H](CC1CCOCC1)n1ccc(S(=O)(=O)C2CC2)cc1=O [Example 29]', 'glucokinase (GK) (Homo sapiens, UniProt P35557)', 'EC50', '> 15.8 µM'),
  ('CN1CCN(Cc2cnc(NC(=O)C(CC3CCOCC3)n3ccc(S(=O)(=O)C4CC4)cc3=O)s2)CC1 (centres unmarked) [Example 147]', 'glucokinase (GK) (Homo sapiens, UniProt P35557)', 'EC50', '> 15.8 µM'),
  ('Cc1cc(C#CCO)cc(=O)n1[C@H](CC1CCOCC1)C(=O)Nc1ncc(Cl)s1 (stereo in doubt) [Example 137]', 'glucokinase (GK) (Homo sapiens, UniProt P35557)', 'EC50', '> 15.8 µM'),
  ('Cc1cc(S(=O)(=O)C2CC2)cc(=O)n1[C@H](CC1CCCC1)C(=O)Nc1ncc(F)s1 [Example 163]', 'glucokinase (GK) (Homo sapiens, UniProt P35557)', 'EC50', '> 15.8 µM'),
  ('Cc1cc(-c2cccnc2)cc(=O)n1[C@@H](CC1CCCCC1)C(=O)Nc1nccs1 [Example 100]', 'glucokinase (GK) (Homo sapiens, UniProt P35557)', 'EC50', '1.58 to 15.8 µM'),
  ('O=C(Nc1ncc(F)s1)C(CC1CCOCC1)n1ccc(S(=O)(=O)c2ccccn2)cc1=O (centres unmarked) [Example 50]', 'glucokinase (GK) (Homo sapiens, UniProt P35557)', 'EC50', '< 1.58 µM');

Let us move to another entry and its EC50.
Task: Lab note: need EC50 with glucokinase (GK) (Homo sapiens, UniProt P35557) for entry O=C(Nc1nccs1)C(CC1CCOCC1)n1cc(S(=O)(=O)N2CCCC2)ccc1=O (centres unmarked) [Example 139] , please look it up.
Output: 1.58 to 15.8 µM

---

target: glucokinase (GK) (Homo sapiens, UniProt P35557); construct: I.D. No. 1 corresponds to residues 12-465 of glucokinase; made in house; host or cells: E. coli DH10b-T1r; test: enzymatic glucokinase activity assay (ATP consumption, KinaseGlo luminescence); format: biochemical; conditions: recombinant GK residues 12-465; 5 μM ATP, 5 mM Glucose; Kact = concentration that displays 50% of the maximal increase in GK activity; read-out: pKact
Item-by-item account of EC50

Some solved entries appear below for comparison.
INSERT INTO results (molecule, value_measured) VALUES
  ('O=C(Nc1ccc(Cl)cn1)[C@@H](CC1CCOCC1)n1ccc(S(=O)(=O)C2CCCC2)cc1=O [Example 41]', '> 15800 nM'),
  ('Cc1cc(S(=O)(=O)C2CCCC2)cc(=O)n1C(CC1CCCCC1)C(=O)Nc1ncc(Cc2ccc(F)cc2)s1 (stereo not drawn) [Example 82]', '< 1580 nM'),
  ('Cc1cc(S(=O)(=O)C2CCOCC2)cc(=O)n1C(CC1CCCC1)C(=O)Nc1ncc(F)s1 (stereo not drawn) [Example 175]', '1580 to 15800 nM'),
  ('COc1ccc2nc(NC(=O)[C@H](CC3CCOCC3)n3ccc(S(=O)(=O)C4CC4)cc3=O)sc2n1 [Example 49]', '< 1580 nM'),
  ('Cc1cc(S(=O)(=O)Cc2ccco2)cc(=O)n1[C@@H](CC1CCOCC1)C(=O)Nc1ncc(Cl)s1 [Example 141]', '< 1580 nM'),
  ('O=C(Nc1cnccn1)[C@@H](CC1CCOCC1)n1ccc(S(=O)(=O)C2CC2)cc1=O [Example 69]', '> 15800 nM');

Task: Need EC50, item COc1cccc(-c2cc(C)n([C@@H](CC3CCCCC3)C(=O)Nc3nccs3)c(=O)c2)c1 [Example 95]
Output: 1580 to 15800 nM
